Target: human full-length HSP90 (Homo sapiens)
Construct: E. coli expressed human full-length HSP90 protein, purified >95%; made in house; host or cells: E. coli
Assay: Fluorescence polarization (FP) binding assay
Details: competitive displacement of fluorescein-labelled probe from human full-length HSP90; activity range; read-out: ACTIVITY* (Activity in the FP binding assay)
VALUE KIND: IC50

Below, each entry is followed by its recorded IC50 result.
• CCN(CC)CCOc1cc(-c2nc(CC(C)C)nc3[nH]cc(C#N)c23)c(Cl)cc1OC = 500 to 10000 nM
• COc1cc(-c2nc(SC)nc3[nH]cc(C#N)c23)ccc1C#N = 500 to 10000 nM

molecule `CSc1nc(-c2cc3c(cc2Cl)OCO3)c2c(C#N)c[nH]c2n1` , IC50 observed: < 500 nM

molecule `COc1cc(Cl)c(-c2nc(OCCCN3CCOCC3)nc3[nH]cc(C#N)c23)cc1OC` , IC50 observed: < 500 nM

molecule `COc1cc(Cl)c(-c2nc(OCCN3CC[C@@H](F)C3)nc3[nH]cc(C#N)c23)cc1OC` , IC50 observed: < 500 nM

molecule `COc1cc(Cl)c(-c2nc(Sc3nccs3)nc3[nH]cc(C#N)c23)cc1OC` , IC50 observed: < 500 nM

molecule `COc1cc(Cl)c(-c2nc(SC(C)C)nc3[nH]cc(C#N)c23)cc1OCCN1CCC(F)(F)CC1` , IC50 observed: < 500 nM

molecule `CCN(CC)CCOc1cc(-c2nc(Sc3nccs3)nc3[nH]cc(C#N)c23)c(Cl)cc1OC` , IC50 observed: < 500 nM

---

Molecular target: human full-length HSP90 (Homo sapiens)
Construct: E. coli expressed human full-length HSP90 protein, purified >95%; made in house; host or cells: E. coli
Experiment: Fluorescence polarization (FP) binding assay
Conditions: competitive displacement of fluorescein-labelled probe from human full-length HSP90; activity range; read-out: activity in the fluorescence polarization assay
pIC50: −log10 of the molar value.
VALUE KIND: pIC50

• COc1cc(-c2nc(OCCN3CCCC3=O)nc3[nH]cc(C#N)c23)c(Cl)cc1Cl = > 6.30
• COc1cc(Cl)c(-c2nc([S+](C)[O-])nc3[nH]cc(C#N)c23)cc1OC (stereo not drawn) = 5.00 to 6.30
• CSc1nc(-c2ccc(C)cc2C)c2c(C)c[nH]c2n1 = 5.00 to 6.30
• Cc1cc(F)ccc1-c1nc(OCCN2CCCC2=O)nc2[nH]cc(C#N)c12 = 5.00 to 6.30
• COc1nc(-c2ccc(F)cc2C)c2c(C#N)c[nH]c2n1 = 5.00 to 6.30

compound `Cc1cc(F)ccc1-c1nc(SCCN2CCOCC2)nc2[nH]cc(C#N)c12` , pIC50 observed: > 6.30

compound `COc1cc(Cl)c(-c2nc(SC)nc3[nH]cc(C#N)c23)cc1OC` , pIC50 observed: > 6.30

compound `CCN(CC)CCOc1cc(-c2nc(SC)nc3[nH]cc(C#N)c23)c(Cl)cc1Cl` , pIC50 observed: > 6.30

---

Molecular target: human full-length HSP90 (Homo sapiens, UniProt P08238)
Construct: E. coli expressed human full-length HSP90 protein, purified >95%; made in house; host or cells: E. coli
Sequence (P08238 whole entry): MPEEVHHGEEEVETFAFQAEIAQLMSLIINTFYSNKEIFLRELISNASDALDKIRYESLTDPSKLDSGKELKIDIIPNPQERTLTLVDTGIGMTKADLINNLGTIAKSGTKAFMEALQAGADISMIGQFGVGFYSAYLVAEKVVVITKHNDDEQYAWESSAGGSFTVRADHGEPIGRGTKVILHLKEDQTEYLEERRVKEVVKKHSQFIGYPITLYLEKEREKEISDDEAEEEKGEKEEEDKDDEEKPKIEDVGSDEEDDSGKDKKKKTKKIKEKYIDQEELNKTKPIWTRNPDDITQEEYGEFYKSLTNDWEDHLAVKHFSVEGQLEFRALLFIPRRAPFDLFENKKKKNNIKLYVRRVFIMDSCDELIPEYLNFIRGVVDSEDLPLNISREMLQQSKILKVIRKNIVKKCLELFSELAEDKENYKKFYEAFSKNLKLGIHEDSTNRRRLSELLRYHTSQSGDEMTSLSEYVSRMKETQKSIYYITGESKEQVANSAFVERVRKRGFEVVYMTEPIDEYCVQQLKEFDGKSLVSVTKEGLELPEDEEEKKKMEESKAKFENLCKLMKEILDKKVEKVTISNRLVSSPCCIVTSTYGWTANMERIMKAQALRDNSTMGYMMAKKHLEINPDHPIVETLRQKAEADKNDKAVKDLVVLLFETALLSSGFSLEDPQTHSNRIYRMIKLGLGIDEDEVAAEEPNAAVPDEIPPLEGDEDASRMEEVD
Test: Fluorescence polarization (FP) binding assay
Conditions: competitive displacement of fluorescein-labelled probe from human full-length HSP90; activity range; read-out: activity in the fluorescence polarization assay
VALUE KIND: IC50

Below, each entry is followed by its recorded IC50 result.
• CSc1nc(-c2ccc(F)cc2C)c2c(C#N)c[nH]c2n1 = < 0.5 µM
• CNc1nc(-c2ccc(F)cc2C)c2c(C#N)c[nH]c2n1 = 0.5 to 10 µM
• CSc1nc(-c2ccc(F)cc2C)c2c(C(N)=O)c[nH]c2n1 = > 10 µM
• COc1ccc(-c2nc(OCCN3CCC(F)(F)CC3)nc3[nH]cc(C#N)c23)cc1OC = < 0.5 µM
• CSc1nc(-c2ccc(C)cc2C)c2c(Br)c[nH]c2n1 = 0.5 to 10 µM
• Cc1cc(F)ccc1-c1nc(SCCO)nc2[nH]cc(C#N)c12 = < 0.5 µM
• CSc1nc(-c2ccc(C)cc2C)c2c(C#N)c[nH]c2n1 = < 0.5 µM
• CSc1nc(-c2ccc(C)cc2C)c2c(C3CC3)c[nH]c2n1 = > 10 µM
• Cc1cc(F)ccc1-c1nc(OCCN2CCOCC2)nc2[nH]cc(C#N)c12 = 0.5 to 10 µM
• Cc1ccc(-c2ncnc3[nH]cc(C(N)=O)c23)c(C)c1 = > 10 µM

Form field IC50 for item `CSc1nc(C(=O)N2Cc3ccccc3C2)c2c(C#N)c[nH]c2n1` on human full-length HSP90 (Homo sapiens, UniProt P08238): 0.5 to 10 µM

Form field IC50 for item `CSc1nc(-c2ccc(Cl)cc2Cl)c2c(C#N)c[nH]c2n1` on human full-length HSP90 (Homo sapiens, UniProt P08238): < 0.5 µM

Form field IC50 for item `CCN(CC)CCOc1cc(-c2nc(SC(C)C)nc3[nH]cc(C#N)c23)c(Cl)cc1OC` on human full-length HSP90 (Homo sapiens, UniProt P08238): < 0.5 µM

Form field IC50 for item `CCc1nc(-c2ccc(F)cc2C)c2c(C#N)c[nH]c2n1` on human full-length HSP90 (Homo sapiens, UniProt P08238): 0.5 to 10 µM

Form field IC50 for item `COc1cc(Cl)c(-c2nc(OCCN3CCC(F)(F)C3)nc3[nH]cc(C#N)c23)cc1OC` on human full-length HSP90 (Homo sapiens, UniProt P08238): < 0.5 µM

---

Target: human full-length HSP90 (Homo sapiens, UniProt P08238)
Construct: E. coli expressed human full-length HSP90 protein, purified >95%; made in house; host or cells: E. coli
Assay: Fluorescence polarization (FP) binding assay
Details: competitive displacement of fluorescein-labelled probe from human full-length HSP90; activity range; read-out: activity in the fluorescence polarization assay
Overview of reported IC50 across a group of compounds:

* CSc1nc(-c2ccc(C#N)cc2)c2c(C#N)c[nH]c2n1 | < 500 nM
* CCN(CC)CCOc1cccc(-c2nc(SC)nc3[nH]cc(C#N)c23)c1 | 500 to 10000 nM
* CCN(CC)CCSc1nc(-c2cc(OC)c(Cl)cc2Cl)c2c(C#N)c[nH]c2n1 | < 500 nM
* CCN(CC)CCSc1nc(-c2cc(OC)c(OC)cc2Cl)c2c(C#N)c[nH]c2n1 | < 500 nM
* Cc1cc(F)ccc1-c1nc(OCCN2CCCC2)nc2[nH]cc(C#N)c12 | > 10000 nM
* CCN(CC)CC[S+]([O-])c1nc(-c2cc(OC)c(OC)cc2Cl)c2c(C#N)c[nH]c2n1 (stereo not shown) | 500 to 10000 nM
* CCN(CC)CCSc1nc(-c2ccc(F)cc2C)c2c(C#N)c[nH]c2n1 | < 500 nM
* CSc1nc(-c2ccc(C)cc2C)c2c(C(F)(F)F)c[nH]c2n1 | 500 to 10000 nM
* CCN(CC)CCOc1cc(-c2nc(SCC(=O)NC)nc3[nH]cc(C#N)c23)c(Cl)cc1Cl | < 500 nM
* COc1cc(Cl)c(-c2nc(OCCN3CC[C@H](F)C3)nc3[nH]cc(C#N)c23)cc1OC | < 500 nM

compound `COc1cc(-c2nc(SC)nc3[nH]cc(C#N)c23)c(Cl)cc1C#N` , IC50 observed: < 500 nM

compound `COc1cc(Cl)c(-c2nc(OCCN3CCC(F)(F)CC3)nc3[nH]cc(C#N)c23)cc1OC` , IC50 observed: < 500 nM

compound `COc1ccc(-c2nc(OCCN3CCC(F)(F)C3)nc3[nH]cc(C#N)c23)cc1OC` , IC50 observed: 500 to 10000 nM
